Data origin: paper PMC12136788

In this section, each of the binders is paired with its reported binding signal.
- subject.of.test: T1, UNK ZnF1-3 (human, UniProt Q9C0B0 31-174)
- T1 sequence: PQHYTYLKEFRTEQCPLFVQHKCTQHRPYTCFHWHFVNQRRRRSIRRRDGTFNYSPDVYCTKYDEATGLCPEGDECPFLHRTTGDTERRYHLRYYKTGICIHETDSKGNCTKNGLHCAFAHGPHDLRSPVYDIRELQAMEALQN
- assay.method.text: nsRBNS (natural sequence RNA bind-n-seq); RBNS binding buffer (assumed for nsRBNS): 25 mM Tris pH 7.5, 150 mM KCl, 3 mM MgCl2, 0.01% Triton X-100, 500 ug/ml BSA, 20 U/ml SUPERase-In, 4 C; UNK is unkempt and MSI1 is Musashi-1; names of the RNAs are library labels; protein concentration not given here; high values mean tight binding
In all, about 24,000 sequences were measured (“enrichment r”: median about 0.99, highest 2% from about 3.7 on). The entries come from a sample that favours the highest values as a whole.
Provide the reading as a plain figure in enrichment R.

{"binder": "57185256_57189016_303_CDS_ENSG00000146143_ENST00000607273|human|control|control (ssRNA) RNA: GGGAGUUCUACAGUCCGACGAUCUUCAUCUUCUAAGUUUUCUCUGUAGGAAAACUUGAGCUUCCGAAGCUCACUCUCCAACUUACUCUGGUAUUGUUCAGUUCCUUUCACAUAGCUCACUCCAAGAUUUUCAACUGAUUUUAACAACAGAGGAUUGAGCAUCA", "binding signal [enrichment R]": 0.6}
{"binder": "chr14:46222469:46222470:-_ENSMUSG00000037697_ENSMUST00000051310|mus_hu|FALSE|FALSE (ssRNA) RNA: GGGAGUUCUACAGUCCGACGAUCAUUCUCUGAAACUGAGGUAGGUUCUUUAGCUGGGUUGAGAAAGCUUGGCUUCAUAUGUUCAUAAGGUAAAGGAUUUGAAGUAUUGUACCAGUGGAUCUGGACAGGUGAAAUGUUGCUGUACAACAGAGGAUUGAGCAUCA", "binding signal [enrichment R]": 1.5}

API: the following record is the query input.
Inquiry: Using known records, supply binding signal for chrX:119742084:119742085:+_ENSG00000232119_ENST00000371317|hu_hu|FALSE|FALSE (ssRNA) RNA: GGGAGUUCUACAGUCCGACGAUCAAAAGGAUAUUUGUGAAGUAAUCUUAGGGUUGGAUAAAAAGGCCCUUCUCUUUGUCUAAAAAAGAGUAAUUCUCCAUUUACUGUAAGGAUUUCUAUAUGUUCAUGGCAUCGGACUAUUUUCAACAGAGGAUUGAGCAUCA
Reply text: 0.455
